Target: T1, AXL on A431 cells (Homo sapiens, UniProt P30530)
T1 construct: AXL-positive A431 cells were incubated; endogenous in cells; host or cells: A431
Test: Antibody binding to A431 cells with or without Gas6 pre-incubation
Details: no Gas6 pre-incubation
readout.type: Antibody binding to A431 cells: EC50 w/o Gas6 mean (s.d.)

# count of solved cases: 2
molecule	val
IgG1-AXL-148: human IgG1,κ anti-AXL antibody, VH SEQ ID NO:5, VL SEQ ID NO:6; Ig2 domain binding (antibody, V domains shown, homo sapiens) VH: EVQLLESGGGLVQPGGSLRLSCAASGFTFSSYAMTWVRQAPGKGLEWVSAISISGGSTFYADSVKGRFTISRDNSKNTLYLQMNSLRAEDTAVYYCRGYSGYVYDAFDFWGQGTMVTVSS VL: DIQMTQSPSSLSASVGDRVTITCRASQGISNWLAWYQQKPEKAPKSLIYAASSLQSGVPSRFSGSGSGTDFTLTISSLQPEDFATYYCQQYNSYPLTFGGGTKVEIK	0.11 (0.13) μg/mL
IgG1-AXL-726: human IgG1,κ anti-AXL antibody, VH SEQ ID NO:31, VL SEQ ID NO:33; FN2 domain binding (antibody, V domains shown, homo sapiens) VH: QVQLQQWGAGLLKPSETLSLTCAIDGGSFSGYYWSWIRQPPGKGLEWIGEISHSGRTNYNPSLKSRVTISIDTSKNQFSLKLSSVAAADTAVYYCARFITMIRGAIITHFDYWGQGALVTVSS VL: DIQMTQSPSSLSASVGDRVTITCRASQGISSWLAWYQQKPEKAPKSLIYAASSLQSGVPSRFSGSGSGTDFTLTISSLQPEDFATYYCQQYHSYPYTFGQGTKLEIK	0.32 (0.35) μg/mL

Antibody binding to A431 cells: EC50 w/o Gas6 mean (s.d.) measured on IgG1-AXL-183: human IgG1,κ anti-AXL antibody, VH SEQ ID NO:16, VL SEQ ID NO:18; FN1 domain binding (antibody, V domains shown, homo sapiens) VH: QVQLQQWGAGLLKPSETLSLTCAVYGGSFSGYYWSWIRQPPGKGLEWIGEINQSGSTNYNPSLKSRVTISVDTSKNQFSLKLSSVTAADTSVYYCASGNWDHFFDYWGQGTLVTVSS VL: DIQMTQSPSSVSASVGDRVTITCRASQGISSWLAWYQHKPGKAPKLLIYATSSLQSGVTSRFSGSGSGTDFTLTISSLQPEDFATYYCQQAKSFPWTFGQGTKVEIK = 0.69 (0.72) μg/mL

IgG1-AXL-511: human IgG1,κ anti-AXL antibody, VH SEQ ID NO:136, VL SEQ ID NO:140; Ig2 domain binding (antibody, V domains shown, homo sapiens) VH: EVQLLESGGGLVQPGGSLRLSCAASGFTFSSYAMNWVRQAPGKGLEWVSGISGSGGHTYHADSVKGRFTISRDNSKNTLYLQMNSLRAEDTAVYYCAKDRYDILTGYYNLLDYWGQGTLVTVSS VL: DIQMTQSPSSLSASVGDRVTITCRASQGISSWLAWYQQKPEEAPKSLIYAASSLQSGVPSRFSGSGSGTDFTLTISSLQPEDFATYYCQQYNSYPLTFGGGAKVEIK has a reported Antibody binding to A431 cells: EC50 w/o Gas6 mean (s.d.) of 0.12 (0.11) μg/mL

Reported Antibody binding to A431 cells: EC50 w/o Gas6 mean (s.d.) ( IgG1-AXL-733: human IgG1,κ anti-AXL antibody, VH SEQ ID NO:34, VL SEQ ID NO:35; FN1 domain binding (antibody, V domains shown, homo sapiens) VH: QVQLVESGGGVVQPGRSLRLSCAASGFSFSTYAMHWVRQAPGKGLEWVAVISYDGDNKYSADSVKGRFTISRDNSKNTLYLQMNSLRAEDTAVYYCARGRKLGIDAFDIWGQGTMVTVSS VL: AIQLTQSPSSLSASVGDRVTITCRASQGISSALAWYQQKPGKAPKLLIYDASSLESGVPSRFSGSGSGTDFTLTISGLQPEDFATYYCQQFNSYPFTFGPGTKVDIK ) = 0.49 (0.51) μg/mL
